The reported numbers originate from ChEMBL document CHEMBL1201862.

# System: NCI/ADR-RES
# assay-comment: NCI tumour cell line growth inhibition, 48 h
Calls of active or inactive are those of the source. Rule as the data show it: active = GI50 up to about 1.1 µM and inactive = higher.
As shown below, each of these compounds has a reported GI50 value.
quantity-measured: GI50

> print(dat)
                                   compound  quantity.measured  recorded.measurement
1   N#Cc1c(N)[nH]c(=S)c(C#N)c1-c1cccc(Cl)c1               GI50    67.1 µM (inactive)
2  NC(=O)C(c1ccccc1)N1OC2C(=O)N(c3cccc4ccccc34)C(=O)C2C1c1c2ccccc2c(Cl)c2ccccc12 (centres undefined)               GI50    5.15 µM (inactive)
3  O=C1Oc2cc(O)cc(/C=C/c3ccc(O)cc3)c2[C@@]12c1c(O)cc(O)cc1OC2c1cccc(O)c1 (some centres undefined)               GI50    67.1 µM (inactive)
4  CC1(C)OC2C(O)CN3CCS[C@H]3C2O1 (some centres undefined)               GI50   > 100 µM (inactive)
5     Cc1ccc(Nc2ncnc3sc(SCc4ccccc4)nc23)cc1               GI50   > 100 µM (inactive)
6  CC[C@@H]1CC[C@@H]2[C@H](CC[C@]3(C)[C@@H](OC(C)=O)CC[C@@H]23)[C@H]1COC(C)=O               GI50    26.7 µM (inactive)
7  COc1cc(/C=C2\C(=O)N(c3cccc([N+](=O)[O-])c3)C(c3ccccc3)S2(=O)=O)cc(OC)c1OC (centres undefined)               GI50   > 100 µM (inactive)
8  COc1ccc(C(=O)N=C2N(c3ccccc3)C(=N/c3ccccc3)/C(=N\c3ccccc3)N2c2ccccc2)cc1               GI50   > 100 µM (inactive)
9  O=C(O)CC(O)(C(=O)O)C(O)C(=O)O (centres undefined)               GI50  > 1000 µM (inactive)
